- System: 653999-131-R-J2-PDC complex spheroid viability
- assay.overview: Anticancer human tumor 653999-131-R-J2-PDC patient-derived lung adenocarcinoma cell line growth inhibition
- reported.conditions: second compound 0.1 µM; first compound 0.0949 µM; stronger effect = lower value
In plain terms, low viability, T/C, meaning strictly below 80%, gives yes (1), and everything else gives no (0).

Examples with answers:
compound	category
Nc1ccn(C2OC(CO)C(O)C2(F)F)c(=O)n1 (centres undefined) + NC1CC1c1ccc(-c2cccc(O)c2)cc1	yes (1)
CCc1c2c(nc3ccc(O)cc13)-c1cc3c(c(=O)n1C2)COC(=O)[C@]3(O)CC + NC1CC1c1ccc(-c2cccc(O)c2)cc1	yes (1)
COc1cc(C2c3cc4c(cc3C(OC3OC5COC(C)OC5C(O)C3O)C3COC(=O)C23)OCO4)cc(OC)c1O (centres undefined) + NC1CCC(NC2CC2c2ccccc2)CC1	yes (1)
NS(=O)(=O)OCC1CC(n2ccc3c(NC4CCc5ccccc54)ncnc32)CC1O (centres undefined) + NC1CCC(NC2CC2c2ccccc2)CC1	no (0)
Nc1ccn(C2OC(CO)C(O)C2(F)F)c(=O)n1 (centres undefined) + NC1CCC(NC2CC2c2ccccc2)CC1	yes (1)
COc1cc(C2c3cc4c(cc3C(OC3OC5COC(C)OC5C(O)C3O)C3COC(=O)C23)OCO4)cc(OC)c1O (centres undefined) + NC1CC1c1ccc(-c2cccc(O)c2)cc1	yes (1)
O=C(C=Cc1cccc(S(=O)(=O)Nc2ccccc2)c1)NO + NC1CC1c1ccc(-c2cccc(O)c2)cc1	no (0)

Consider the record given below.
Threshold test, viability, T/C < 80%: CCN(c1cc(-c2ccc(CN3CCOCC3)cc2)cc(C(=O)NCc2c(C)cc(C)[nH]c2=O)c1C)C1CCOCC1 + NC1CC1c1ccc(-c2cccc(O)c2)cc1
no (0)

###

Recorded viability, T/C, one value per entry.
- System: 653999-131-R-J2-PDC complex spheroid viability
- assay.overview: Anticancer human tumor 653999-131-R-J2-PDC cell line growth inhibition;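 also: spheroids exposed to agents for seven days before readout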
- reported.conditions: second compound 3.16 µM; first compound 1 µM; stronger effect = lower value
Report the figure in % without appending any unit label.

Examples with answers:
compound	viability, T/C [%]
CC(C)c1c(-c2ccccc2)nc2c(C#N)c[nH]n2c1=O + NC1CCC(NC2CC2c2ccccc2)CC1	95.1
CC1(C)CCC(CN2CCN(c3ccc(C(=O)NS(=O)(=O)c4ccc(NCC5CCOCC5)c([N+](=O)[O-])c4)c(Oc4cnc5[nH]ccc5c4)c3)CC2)=C(c2ccc(Cl)cc2)C1 + NC1CC1c1ccc(-c2cccc(O)c2)cc1	86.8

Now for another entry.
Look up viability, T/C with 653999-131-R-J2-PDC complex spheroid viability for this compound: CC1COCCN1c1cc(C2(S(C)(=N)=O)CC2)nc(-c2ccnc3[nH]ccc23)n1 (stereo not drawn) + NC1CCC(NC2CC2c2ccccc2)CC1
39.1

###

- Tested on: 653999-131-R-J2-PDC complex spheroid viability
- assay.overview: Anticancer human tumor 653999-131-R-J2-PDC cell line growth inhibition;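 also: spheroids exposed to agents for seven days before readout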
- reported.conditions: second compound 10 µM; first compound 1 µM; stronger effect = lower value
test.readout: viability, T/C (%)
API: value field is a number in %; no unit string.

Solved cases below.
compound	viability, T/C, %
COc1ccc([C@@H](O)c2cc(-c3ncnc4cc(N5CCOCC5)ccc34)c(F)cc2Cl)nn1 + NC1CC1c1ccc(-c2cccc(O)c2)cc1	53.3
CC1(C)CCC(CN2CCN(c3ccc(C(=O)NS(=O)(=O)c4ccc(NCC5CCOCC5)c([N+](=O)[O-])c4)c(Oc4cnc5[nH]ccc5c4)c3)CC2)=C(c2ccc(Cl)cc2)C1 + NC1CC1c1ccc(-c2cccc(O)c2)cc1	95.8
CC(C)c1c(-c2ccccc2)nc2c(C#N)c[nH]n2c1=O + NC1CCC(NC2CC2c2ccccc2)CC1	78.1
O=C(c1cc(Cc2n[nH]c(=O)c3ccccc23)ccc1F)N1CCN(C(=O)C2CC2)CC1 + NC1CCC(NC2CC2c2ccccc2)CC1	92.2

Recorded viability, T/C of CC1COCCN1c1cc(-c2ccnn2C)c2ccnc(-c3ccn[nH]3)c2n1 (stereo not drawn) + NC1CCC(NC2CC2c2ccccc2)CC1 , please.
30.1

Let us now turn to COc1cc(Nc2ncc3c(n2)-c2ccc(Cl)cc2C(c2c(F)cccc2OC)=NC3)ccc1C(=O)O + NC1CC1c1ccc(-c2cccc(O)c2)cc1
53.5

What do you get for COc1cc(Nc2ncc3c(n2)-c2ccc(Cl)cc2C(c2c(F)cccc2OC)=NC3)ccc1C(=O)O + NC1CCC(NC2CC2c2ccccc2)CC1 ?
79.7

Please give the result for CC(C)c1c(-c2ccccc2)nc2c(C#N)c[nH]n2c1=O + NC1CC1c1ccc(-c2cccc(O)c2)cc1 too.
76.5

###

viability, T/C reference
- Test system: 653999-131-R-J2-PDC complex spheroid viability
- assay.overview: Anticancer human tumor 653999-131-R-J2-PDC cell line growth inhibition;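 also: spheroids exposed to agents for seven days before readout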
- reported.conditions: second compound 3.16 µM; first compound 1 µM; stronger effect = lower value
Give the value, in units of %, as a plain number.

molecule	target.of.assay	viability, T/C, %
CC(C)c1c(-c2ccccc2)nc2c(C#N)c[nH]n2c1=O + NC1CC1c1ccc(-c2cccc(O)c2)cc1	653999-131-R-J2-PDC complex spheroid viability	68.7
O=C(c1cc(Cc2n[nH]c(=O)c3ccccc23)ccc1F)N1CCN(C(=O)C2CC2)CC1 + NC1CC1c1ccc(-c2cccc(O)c2)cc1	653999-131-R-J2-PDC complex spheroid viability	82.5
COc1ccc([C@@H](O)c2cc(-c3ncnc4cc(N5CCOCC5)ccc34)c(F)cc2Cl)nn1 + NC1CCC(NC2CC2c2ccccc2)CC1	653999-131-R-J2-PDC complex spheroid viability	65.2
O=C(C=Cn1cnc(-c2cc(C(F)(F)F)cc(C(F)(F)F)c2)n1)NNc1cnccn1 + NC1CCC(NC2CC2c2ccccc2)CC1	653999-131-R-J2-PDC complex spheroid viability	21.9
COc1ccc([C@@H](O)c2cc(-c3ncnc4cc(N5CCOCC5)ccc34)c(F)cc2Cl)nn1 + NC1CC1c1ccc(-c2cccc(O)c2)cc1	653999-131-R-J2-PDC complex spheroid viability	49.5

Item under review: Nc1ncn(C2CC(O)C(CO)O2)c(=O)n1 (configuration not stated) + NC1CC1c1ccc(-c2cccc(O)c2)cc1 . Reported viability, T/C?
90

And then O=C(C=Cn1cnc(-c2cc(C(F)(F)F)cc(C(F)(F)F)c2)n1)NNc1cnccn1 + NC1CC1c1ccc(-c2cccc(O)c2)cc1 , what is it?
24.8

###

- System: 653999-131-R-J2-PDC complex spheroid viability
- assay.overview: Anticancer human tumor 653999-131-R-J2-PDC cell line growth inhibition;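 also: spheroids exposed to agents for seven days before readout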
- reported.conditions: second compound 3.16 µM; first compound 0.949 µM; stronger effect = lower value
Reported values of viability, T/C for individual entries
Give a bare numeral; the unit % is implied.

Find the measured viability, T/C: item COc1cc(C2c3cc4c(cc3C(OC3OC5COC(C)OC5C(O)C3O)C3COC(=O)C23)OCO4)cc(OC)c1O (stereo not drawn) + NC1CCC(NC2CC2c2ccccc2)CC1 , target or system 653999-131-R-J2-PDC complex spheroid viability.
31.3

Now try Nc1ccccc1NC(=O)c1ccc(CNC(=O)OCc2cccnc2)cc1 + NC1CCC(NC2CC2c2ccccc2)CC1 .
36.3

Further, for COc1cc(C2c3cc4c(cc3C(OC3OC5COC(C)OC5C(O)C3O)C3COC(=O)C23)OCO4)cc(OC)c1O (stereo not drawn) + NC1CC1c1ccc(-c2cccc(O)c2)cc1 ?
32.8

###

- System: 653999-131-R-J2-PDC complex spheroid viability
- assay.overview: Anticancer human tumor 653999-131-R-J2-PDC cell line growth inhibition; active means viability on the fitted dose curve at most 10% of control; inactive means the rest;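 also: spheroids exposed to agents for seven days before readout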
- reported.conditions: second compound 3.16 µM; first compound 0.0316 µM
- Source text: Multicellular complex tumor spheroid response to LSD1 Inhibitor Iadademstat in combination with a variety of drugs and investigational agents in selected tumor cell lines The current study was undertaken to assess response to LSD1 inhibitors in combination with standard-of-care drugs and investigational agents in solid tumor complex spheroid models as well as in the K-562 leukemia. […] Compounds. […] If the clinical Cmax for an agent had not been determined, the highest concentration tested was 10 microM. […]
Pick one: active, inactive

Answer briefly: the call reported for Cn1ncnc1C1c2n[nH]c(=O)c3cc(F)cc(c23)NC1c1ccc(F)cc1 (centres undefined) + NC1CC1c1ccc(-c2cccc(O)c2)cc1 in this assay.
inactive

###

- Tested on: 653999-131-R-J2-PDC complex spheroid viability
- assay.overview: Anticancer human tumor 653999-131-R-J2-PDC cell line growth inhibition;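 also: spheroids exposed to agents for seven days before readout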
- reported.conditions: curve of first compound; second compound 1 µM
Recorded IC50 for the following compounds
Reply with just the number (in nM).

Need IC50 of CC(C)CC(NC(=O)C(Cc1ccccc1)NC(=O)c1cnccn1)B(O)O (centres undefined) + NC1CC1c1ccc(-c2cccc(O)c2)cc1 , thanks.
0.786

Now give it for CC1COCCN1c1cc(C2(S(C)(=N)=O)CC2)nc(-c2ccnc3[nH]ccc23)n1 (centres undefined) + NC1CCC(NC2CC2c2ccccc2)CC1 too.
840
